Molecular target: Protein kinase C alpha type (Homo sapiens, UniProt P17252); further: in other assays of this panel Not Active means under 50% inhibition at 10 µM;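 further: inhibition of PKCalpha kinase activity measured in an enzyme assay with histone as the phosphorylation substrate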
Type: cell-based
Settings: sf9
assay_metric: Ki

Return Ki (reported value) for this substance: "GENTAMICIN"
Not Active

Return Ki (reported value) for this substance: "GRAMICIDIN"
Not Active

Return Ki (reported value) for this substance: "NYSTATIN"
Not Active

Return Ki (reported value) for this substance: SODIUM ORTHOVANAD
Not Active

Return Ki (reported value) for this substance: MANGANESE CHLORIDE ANHYDROUS
Not Active

Return Ki (reported value) for this substance: GADOPENTETATE DIMEGLUMINE
Not Active

Now look at this entry.
Return Ki (reported value) for this substance: "AURANOFIN"
Not Active

----------
Kindly supply the reported pKi values for the records listed here.
Biological target: Alpha-1A adrenergic receptor (Rattus norvegicus, UniProt P43140)
Sequence (P43140 whole entry): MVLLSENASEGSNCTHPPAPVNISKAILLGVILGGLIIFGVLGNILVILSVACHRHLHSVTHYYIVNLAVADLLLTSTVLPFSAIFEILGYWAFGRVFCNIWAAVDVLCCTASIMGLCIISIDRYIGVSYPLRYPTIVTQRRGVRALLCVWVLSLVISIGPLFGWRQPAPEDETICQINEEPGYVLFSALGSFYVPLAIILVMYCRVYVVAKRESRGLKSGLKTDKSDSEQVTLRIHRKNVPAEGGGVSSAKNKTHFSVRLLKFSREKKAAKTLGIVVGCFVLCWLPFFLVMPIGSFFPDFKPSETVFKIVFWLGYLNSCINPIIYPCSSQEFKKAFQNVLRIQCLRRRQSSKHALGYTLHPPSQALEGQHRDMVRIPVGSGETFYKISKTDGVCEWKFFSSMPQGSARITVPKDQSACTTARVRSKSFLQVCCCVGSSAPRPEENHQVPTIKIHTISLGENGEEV
Experiment: DRUGMATRIX: Alpha-1A adrenergic receptor radioligand binding (ligand: prazosin)
Type: cell membranes, Wistar, Submaxillary gland, Membrane
Conditions: Not Active = under 50% inhibition at 10 µM; read-out: Ki
In textbook form, pKi equals minus log to base ten of the concentration in mol/L.

Return pKi (reported value) for this compound: "CO[C@@H]1[C@@H](OC)[C@H](C)[C@@](O)(CC(=O)O)O[C@H]1[C@H](C)[C@H]1O[C@@]2(CC[C@@](C)([C@H]3CC[C@@](C)([C@@H]4O[C@@H]([C@H]5O[C@](C)(O)[C@H](C)C[C@@H]5C)C[C@@H]4O[C@@H]4C[C@H](OC)[C@@H](OC)[C@H](C)O4)O3)O2)C[C@H](O)[C@H]1C"
5.87

Return pKi (reported value) for this compound: "N=C(N)NC(=O)Cc1c(Cl)cccc1Cl"
6.26

Return pKi (reported value) for this compound: CCCNCC(O)COc1ccccc1C(=O)CCc1ccccc1 (stereo not drawn)
5.60

----------
Biological target: Alpha-2C adrenergic receptor (Homo sapiens)
Sequence (P18825 whole entry): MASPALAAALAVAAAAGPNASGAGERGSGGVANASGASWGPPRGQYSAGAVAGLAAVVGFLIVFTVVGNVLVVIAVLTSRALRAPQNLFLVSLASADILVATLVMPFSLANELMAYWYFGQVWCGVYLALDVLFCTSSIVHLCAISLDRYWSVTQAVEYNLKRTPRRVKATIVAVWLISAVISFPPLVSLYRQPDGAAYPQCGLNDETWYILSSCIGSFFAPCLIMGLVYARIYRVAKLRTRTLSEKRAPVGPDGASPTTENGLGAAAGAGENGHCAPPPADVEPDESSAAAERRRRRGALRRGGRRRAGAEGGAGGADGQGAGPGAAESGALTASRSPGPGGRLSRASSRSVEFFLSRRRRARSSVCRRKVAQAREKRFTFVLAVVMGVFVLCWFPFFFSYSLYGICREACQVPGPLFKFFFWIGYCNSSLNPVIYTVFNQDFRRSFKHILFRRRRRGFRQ
Assay: DRUGMATRIX: Adrenergic Alpha-2C radioligand binding (ligand: [3H] MK-912)
Format: cell membranes, Sf9, Membrane
Conditions: read-out: IC50
assay_metric: IC50 (µM)
The figure you give is taken to be in µM; do not add the unit.

Return IC50 (reported value) for this compound: "Fc1ccc(C(c2ccc(F)cc2)N2CCN(C/C=C/c3ccccc3)CC2)cc1"
0.222

Return IC50 (reported value) for this compound: "Clc1ccccc1CN1CCc2sccc2C1"
1.17

Return IC50 (reported value) for this compound: "Oc1c(Cl)cc(Cl)c(Cl)c1Cc1c(O)c(Cl)cc(Cl)c1Cl"
6.98

Return IC50 (reported value) for this compound: "CC[C@H]1CN2CCc3cc(OC)c(OC)cc3[C@@H]2C[C@@H]1C[C@H]1NCCc2cc(OC)c(OC)cc21"
0.182

Return IC50 (reported value) for this compound: "CCN(CC)CCOc1ccc(/C(=C(/Cl)c2ccccc2)c2ccccc2)cc1"
1.48

Return IC50 (reported value) for this compound: "CO[C@@H]1[C@@H](OC)[C@H](C)[C@@](O)(CC(=O)O)O[C@H]1[C@H](C)[C@H]1O[C@@]2(CC[C@@](C)([C@H]3CC[C@@](C)([C@@H]4O[C@@H]([C@H]5O[C@](C)(O)[C@H](C)C[C@@H]5C)C[C@@H]4O[C@@H]4C[C@H](OC)[C@@H](OC)[C@H](C)O4)O3)O2)C[C@H](O)[C@H]1C"
1.61

Return IC50 (reported value) for this compound: COc1ccc2cc3[n+](cc2c1OC)CCc1cc2c(cc1-3)OCO2.[Cl-] [BERBERINE CHLORIDE]
2.84

----------
Assay: DRUGMATRIX: Calcium Channel Type L, Benzothiazepine radioligand binding (ligand: [3H] Diltiazem)
Format: cell membranes, Rattus norvegicus, Wistar, Brain, Membrane
Settings: Not Active = under 50% inhibition at 10 µM; read-out: Ki
assay_metric: log10 of Ki (log10 of the value in nM)
Quick note: numbers are log10 of Ki, with nM as the unit.

Return log10 of Ki (reported value) for this compound: COc1cc(N)c(Cl)cc1C(=O)NC1CCN(CCCOc2ccc(F)cc2)CC1OC (configuration not stated) [CISAPRIDE]
2.85

Return log10 of Ki (reported value) for this compound: "CC[C@H]1CN2CCc3cc(OC)c(OC)cc3[C@@H]2C[C@@H]1C[C@H]1NCCc2cc(OC)c(OC)cc21"
3.32

Return log10 of Ki (reported value) for this compound: Cc1cc2c(OCC(CNC(C)(C)C)OC(=O)c3ccccc3)cccc2[nH]1 (configuration not stated)
3.40

Return log10 of Ki (reported value) for this compound: CCCNCC(O)COc1ccccc1C(=O)CCc1ccccc1 (configuration not stated)
2.84

Return log10 of Ki (reported value) for this compound: COc1ccc(CCN(C)CCCC(C#N)(c2ccc(OC)c(OC)c2)C(C)C)cc1OC (configuration not stated)
1.08

Return log10 of Ki (reported value) for this compound: Cc1c(C)c2c(c(C)c1O)CCC(C)(CN1CCN(c3cc(N4CCCC4)nc(N4CCCC4)n3)CC1)O2 (configuration not stated)
3.17

Return log10 of Ki (reported value) for this compound: "CN(C)CC[C@@H](c1ccc(Cl)cc1)c1ccccn1"
3.74

----------
Kindly supply the reported pIC50 values for the records listed here.
Target: Matrix metalloproteinase-9 (Homo sapiens); further: in other assays of this panel Not Active means under 50% inhibition at 10 µM;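 further: inhibition of isolated MMP-9 enzyme activity toward a synthetic peptide substrate, from the DrugMatrix protease screening panel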
Sequence (P14780 whole entry): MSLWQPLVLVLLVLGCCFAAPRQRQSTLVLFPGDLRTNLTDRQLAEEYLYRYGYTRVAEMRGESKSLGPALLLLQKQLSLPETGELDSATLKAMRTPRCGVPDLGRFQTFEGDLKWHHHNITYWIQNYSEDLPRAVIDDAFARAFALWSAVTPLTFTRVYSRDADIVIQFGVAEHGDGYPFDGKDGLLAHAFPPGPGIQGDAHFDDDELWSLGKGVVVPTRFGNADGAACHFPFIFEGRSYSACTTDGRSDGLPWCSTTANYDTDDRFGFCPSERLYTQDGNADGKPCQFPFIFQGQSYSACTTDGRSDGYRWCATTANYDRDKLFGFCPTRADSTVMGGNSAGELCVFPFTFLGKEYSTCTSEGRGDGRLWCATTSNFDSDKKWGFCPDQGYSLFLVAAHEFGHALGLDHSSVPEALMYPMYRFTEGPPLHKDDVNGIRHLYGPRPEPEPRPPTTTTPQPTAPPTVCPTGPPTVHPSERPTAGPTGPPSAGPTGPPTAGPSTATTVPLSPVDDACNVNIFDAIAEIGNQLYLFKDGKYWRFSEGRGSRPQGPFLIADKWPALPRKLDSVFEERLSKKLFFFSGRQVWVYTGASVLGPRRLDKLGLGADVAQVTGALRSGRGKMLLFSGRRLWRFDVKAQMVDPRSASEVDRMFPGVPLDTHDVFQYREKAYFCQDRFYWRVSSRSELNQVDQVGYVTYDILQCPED
Test: biochemical
Assay type: cell-based
Details: read-out: IC50
In textbook form, pIC50 equals minus log to base ten of the concentration in mol/L.

Return pIC50 (reported value) for this molecule: Clc1ccc(COC(Cn2ccnc2)c2ccc(Cl)cc2Cl)cc1 (configuration not stated)
5.16

Return pIC50 (reported value) for this molecule: "COc1cc2nc(N3CCN(C(=O)c4ccco4)CC3)nc(N)c2cc1OC"
5.16

----------
Experiment: DRUGMATRIX: Serotonin (5-Hydroxytryptamine) 5-HT3 radioligand binding (ligand: [3H] GR-65630)
Type: cell membranes, Membrane
Details: hek293; Not Active = under 50% inhibition at 10 µM
assay_metric: IC50

Return IC50 (reported value) for this compound: Cc1c(C)c2c(c(C)c1O)CCC(C)(CN1CCN(c3cc(N4CCCC4)nc(N4CCCC4)n3)CC1)O2 (stereo not drawn)
Not Active

Return IC50 (reported value) for this compound: "O=C/C=C/c1ccccc1"
Not Active

Return IC50 (reported value) for this compound: NNc1nncc2ccccc12 [HYDRALAZINE]
Not Active

----------
Molecular target: Cytochrome P450 3A4 (Homo sapiens, UniProt P08684); further: in other assays of this panel Not Active means under 50% inhibition at 10 µM
Sequence (P08684 whole entry): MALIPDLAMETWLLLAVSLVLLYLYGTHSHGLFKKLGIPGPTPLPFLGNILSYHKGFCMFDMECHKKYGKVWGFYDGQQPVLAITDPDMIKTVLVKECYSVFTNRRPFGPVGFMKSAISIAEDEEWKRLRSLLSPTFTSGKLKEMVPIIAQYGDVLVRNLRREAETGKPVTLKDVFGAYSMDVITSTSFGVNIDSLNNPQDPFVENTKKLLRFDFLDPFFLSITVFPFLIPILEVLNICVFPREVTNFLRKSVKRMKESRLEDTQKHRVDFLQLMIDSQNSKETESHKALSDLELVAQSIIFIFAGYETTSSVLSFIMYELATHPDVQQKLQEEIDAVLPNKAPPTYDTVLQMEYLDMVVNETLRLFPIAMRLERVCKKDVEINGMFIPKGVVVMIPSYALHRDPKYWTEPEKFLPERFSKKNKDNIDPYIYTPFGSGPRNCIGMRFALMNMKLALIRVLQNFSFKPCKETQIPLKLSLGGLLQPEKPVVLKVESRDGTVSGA
Conditions: bti-tn-5b1-4
assay_metric: Ki

Sample answers from the record:
Return Ki (reported value) for this substance: GADOPENTETATE DIMEGLUMINE
Not Active

Return Ki (reported value) for this substance: "GRAMICIDIN"
Not Active

Return Ki (reported value) for this substance: SODIUM ORTHOVANAD
Not Active

Return Ki (reported value) for this substance: "GENTAMICIN"
Not Active

Return Ki (reported value) for this substance: "NYSTATIN"
Not Active

Return Ki (reported value) for this substance: "AURANOFIN"
Not Active

Others:
Return Ki (reported value) for this substance: MANGANESE CHLORIDE ANHYDROUS
Not Active

----------
Target: Beta-3 adrenergic receptor (Homo sapiens, UniProt P13945)
Sequence (P13945 whole entry): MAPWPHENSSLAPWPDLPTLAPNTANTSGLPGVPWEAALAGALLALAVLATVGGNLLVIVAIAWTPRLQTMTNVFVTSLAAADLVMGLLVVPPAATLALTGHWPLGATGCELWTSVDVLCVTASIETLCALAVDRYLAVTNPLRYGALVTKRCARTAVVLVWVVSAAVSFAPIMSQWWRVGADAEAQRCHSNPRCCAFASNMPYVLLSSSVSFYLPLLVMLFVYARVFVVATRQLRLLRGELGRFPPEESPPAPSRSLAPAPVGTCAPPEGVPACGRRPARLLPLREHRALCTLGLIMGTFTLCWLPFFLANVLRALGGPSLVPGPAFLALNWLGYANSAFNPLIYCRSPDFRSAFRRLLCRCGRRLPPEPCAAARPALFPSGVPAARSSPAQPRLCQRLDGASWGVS
Test: DRUGMATRIX: Adrenergic beta3 radioligand binding (ligand: [125I] Cyanopindolol)
Type: cell membranes, HEK293, Membrane
Settings: hek293; Not Active = under 50% inhibition at 10 µM
assay_metric: IC50

Return IC50 (reported value) for this compound: O=C(Oc1ccccc1C(=O)O)c1ccccc1O [SALSALATE]
Not Active

Return IC50 (reported value) for this compound: "CN(C)[C@@H]1C(O)=C(C(N)=O)C(=O)[C@@]2(O)C(O)=C3C(=O)c4c(O)ccc(Cl)c4[C@@](C)(O)[C@H]3C[C@@H]12"
Not Active

Return IC50 (reported value) for this compound: CC(C)NCC(O)c1ccc(NS(C)(=O)=O)cc1 (configuration not stated)
Not Active

Return IC50 (reported value) for this compound: "CS(=O)(=O)c1ccc([C@@H](O)[C@@H](CO)NC(=O)C(Cl)Cl)cc1"
Not Active

Return IC50 (reported value) for this compound: "CC[C@@H](C(=O)[C@@H](C)[C@@H](O)[C@H](C)[C@@H]1O[C@@H]([C@@H](CC)C(=O)O)CC[C@@H]1C)[C@H]1O[C@]2(C=C[C@@H](O)[C@]3(CC[C@@](C)([C@H]4CC[C@](O)(CC)[C@H](C)O4)O3)O2)[C@H](C)C[C@@H]1C"
Not Active

Return IC50 (reported value) for this compound: "CCCN(CCC)S(=O)(=O)c1ccc(C(=O)O)cc1"
Not Active

Now look at this entry.
Return IC50 (reported value) for this compound: "CC1(C)S[C@@H]2[C@H](NC(=O)[C@H](N)c3ccccc3)C(=O)N2[C@H]1C(=O)O"
Not Active

Taken from ChEMBL document CHEMBL1909046.
